target: human CD33 W22P (human, UniProt P20138 18-364); assay: flow cytometry, mutant on cells, IgG
Sequence (P20138 18-364 W22P limits assumed): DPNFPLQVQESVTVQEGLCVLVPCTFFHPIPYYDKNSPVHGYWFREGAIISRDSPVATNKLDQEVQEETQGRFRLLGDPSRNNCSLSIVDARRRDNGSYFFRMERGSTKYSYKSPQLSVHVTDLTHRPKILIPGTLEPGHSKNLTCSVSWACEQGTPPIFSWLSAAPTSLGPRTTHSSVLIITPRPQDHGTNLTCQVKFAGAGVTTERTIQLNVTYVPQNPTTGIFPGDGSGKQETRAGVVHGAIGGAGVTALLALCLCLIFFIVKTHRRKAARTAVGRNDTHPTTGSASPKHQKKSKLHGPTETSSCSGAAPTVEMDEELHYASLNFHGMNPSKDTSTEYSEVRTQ
// reported Mean % WT Binding per item
Please don't drop the unit; write it after the number.

Recorded results for 3 binders are shown here.
>  <binder>
Refmab #2 (antibody, human IgG1, V domains shown, Tested in IgG format; human IgG1 Fc silent (PG-LALA)) VH: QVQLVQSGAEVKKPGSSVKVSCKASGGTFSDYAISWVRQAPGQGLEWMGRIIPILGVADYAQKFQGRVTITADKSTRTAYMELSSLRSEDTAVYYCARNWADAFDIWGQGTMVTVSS VL: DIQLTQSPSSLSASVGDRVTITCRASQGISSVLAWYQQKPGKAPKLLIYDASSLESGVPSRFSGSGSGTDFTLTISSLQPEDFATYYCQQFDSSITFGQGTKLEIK

>  <Mean % WT Binding>
136 % WT binding

$$$$
>  <binder>
Refmab #4 (antibody, human IgG1, V domains shown, Tested in IgG format; human IgG1 Fc silent (PG-LALA)) VH: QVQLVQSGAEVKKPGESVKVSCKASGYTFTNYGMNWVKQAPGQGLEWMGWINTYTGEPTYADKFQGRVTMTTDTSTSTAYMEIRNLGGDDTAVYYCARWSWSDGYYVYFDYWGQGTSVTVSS VL: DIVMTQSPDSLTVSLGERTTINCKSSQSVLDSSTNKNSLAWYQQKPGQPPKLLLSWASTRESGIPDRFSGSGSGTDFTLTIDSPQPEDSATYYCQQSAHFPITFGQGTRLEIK

>  <Mean % WT Binding>
104 % WT binding

$$$$
>  <binder>
Refmab #1 (antibody, human IgG1, V domains shown, Tested in IgG format; human IgG1 (Absolute Antibody hP67.6, Cat. No. Ab00283-10.0); also called hP67.6) VH: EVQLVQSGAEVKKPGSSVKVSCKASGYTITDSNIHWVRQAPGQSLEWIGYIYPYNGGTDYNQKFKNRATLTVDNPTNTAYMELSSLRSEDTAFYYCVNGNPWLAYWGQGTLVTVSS VL: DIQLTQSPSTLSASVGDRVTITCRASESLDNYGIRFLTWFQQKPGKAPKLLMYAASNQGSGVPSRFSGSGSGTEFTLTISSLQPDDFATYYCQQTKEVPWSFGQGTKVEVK

>  <Mean % WT Binding>
2.7 % WT binding

$$$$

Below: the item to evaluate.
# input Hello, please tell me recorded Mean % WT Binding for this one: Refmab #3 (antibody, human IgG1, V domains shown, Tested in IgG format; human IgG1 Fc silent (PG-LALA)) VH: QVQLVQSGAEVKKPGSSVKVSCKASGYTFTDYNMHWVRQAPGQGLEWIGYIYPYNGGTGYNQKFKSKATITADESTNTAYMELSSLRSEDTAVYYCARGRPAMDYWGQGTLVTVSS VL: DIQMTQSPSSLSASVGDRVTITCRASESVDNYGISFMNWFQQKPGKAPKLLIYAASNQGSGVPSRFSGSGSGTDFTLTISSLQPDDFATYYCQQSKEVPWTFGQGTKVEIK
# output 0.5 % WT binding

Ref: patent US20260242735A1
